Provenance of the data: the DeepSol protein solubility set

experiment: soluble on expression in E. coli; label from the status in PepcDB or PDB records
reported endpoint: soluble on expression in E. coli

MFEITRPPGVRAHVGVIGGSGLYDPGIVENPVEVKVSTPYGNPSDFIVVGDVAGVKVAFLPRHGRGHRIPPHAINYRANIWALKALGVKWVISVSAVGSLREDYRPGDFVVPDQFIDMTKNRRHYTFYDGPVTVHVSMADPFCEDLRQRLIDSGRRLGYTVHERGTYVCIEGPRFSTRAESRVWKDVFKADIIGMTLVPEINLACEAQLCYATLAMVTDYDVWADRPVTAEEVERVMISNVERARRMLYDVIPKLAGEPELERCSCCRALDTAAI : soluble
MVVSDLKLRDMNEADRHAVGFVGFAAWRAGDAFDASYLDSYVVERVRGEFESFAKSPTGDVVVAEIDGVVVGWGACDAKPHHISDLWVDPNWQGKGIGKALIVHFLDRMRAEGLPLATIDTHARNRAAIGLYERCGFEIVWRGMEWSDIMKVELEKVKLEQKLSP : soluble

----------
experiment: soluble on expression in E. coli; label from the status in PepcDB or PDB records
reported endpoint: soluble on expression in E. coli

MAGDPMFKLKINNFQLGFKLVQWPVTNHLLKHFYVFPINNKGGLAIKRIISLALFKKRLNKDKINNCHVWEEELPDGSYDMGFNGNFNHMEKRKSGYVTQKQFSEFKDANNQRLIKIETTLAIQGEQINKLTQTVEKQGEQINQLVQVVLLQGASKLENFKWSKKHKDKSLMPAWIVWKIFWWKVLEHHHHHH : not soluble
SSAEVKVTGQNQEQFLLLAKSAKGAALATLIHQVLEAPGVYVFGELLDMPNVRELAESDFASTFRLLTVFAYGTYADYLAEARNLPPLTEAQKNKLRHLSVVTLAAKVKCIPYAVLLEALALRNVRQLEDLVIEAVYADVLRGSLDQRNQRLEVDYSIGRDIQRQDLSAIARTLQEWCVGCEVVLSGIEEQVSRANQHKEQQLGLKQQIESEVANLKKTIKVTTAAAAAATSQDPEQHLTELREPAPGTNQRQPSKKASKGKGLRGSAKIWSKSN : soluble
MSLNMFWFLPTHGDGHYLGTEEGSRPVDHGYLQQIAQAADRLGYTGVLIPTGRSCEDAWLVAASMIPVTQRLKFLVALRPSVTSPTVAARQAATLDRLSNGRALFNLVTGSDPQELAGDGVFLDHSERYEASAEFTQVWRRLLQRETVDFNGKHIHVRGAKLLFPAIQQPYPPLYFGGSSDVAQELAAEQVDLYLTWGEPPELVKEKIEQVRAKAAAHGRKIRFGIRLHVIVRETNDEAWQAAERLISHLDDETIAKAQAAFARTDSVGQQRMAALHNGKRDNLEISPNLWAGVGLVRGGAGTALVGDGPTVAARINEYAALGIDSFVLSGYPHLEEAYRVGELLFPLLDVAIPEIPQPQPLNPQGEAVANDFIPRKVAQS : soluble
IIGQVDEISTTDLIEEEENAVLITAEGYAKRMSLEEFRVQSRGGVGVIGASVSPGDEIAVFRICNSTDRLLIFTNTGRAFWINAYEIPKMDRTARGTTLKRLIRLENGEKVVSALGVKDF : soluble
MQSQRAYELIKAEIFKRLGVNRTDAYKDSYLQRRIRARMRKLGISDYMEYYKILKSNKEEFEELLLTIAINVTEFFRDPIVWKTFQNKILPELVQFKKSKGFRSIKIWSAACSTGQEPYSIAMTLYEVLGENLGGFRVSILATDIDKEALQIAMRGEYPVDAVEKQVPRHMIYKYFDRISEERYRIKPHVKRLVTFRWFNLLSSIYPKGFDVIFIRNVLIYMSKEAQEDIFRKLYDSLEDHGYLILGKTETILGRSANLFKLYDLVAKVYKKNLGVKGNG : soluble

Return reported soluble on expression in E. coli values for all items listed beneath this line.
1. MNQPDISTLVQRIEQLELNQSRLRILLSHAPEKHKAFDKACYVANLSFEQEAHVRQTILDFLDSDKEDINELLSSIEAIVRYTVDAKSLISGFKMRGTAPDRWKQIDPHNEC
2. MGSDKIHHHHHHMDFIEVYPNAIPDELCDRLISTLEQHPGVVDGRTGNGVDIEKKLSRDLTLDSFADLIPLRNELLSHALKGTVEYFDKYSMALMGAVAVKVADNQGQPVTLNPDNYAELGHPRADALVKYLYRSGTINVQKYPKGKGGYPHWHSEQFPQAGHNEALHRVVLYMFYLNDVEEGGETEFFYQGRKLKPQKGTMVIAPAGFTHTHRGNVPVSGDKYIATSWVMFNRAEQLYVVG

1: not soluble; 2: not soluble

----------
assay: soluble on expression in E. coli; label from the status in PepcDB or PDB records
reported endpoint: soluble on expression in E. coli

Worked cases, soluble on expression in E. coli given:
MSIKKSPVYNVIAVPVEKVQANDYNPNVVAPPEMRLLELSIWEDGFTMPCVCYYDKEKDVYILVDGFHRYSVLKTSKRIFQRENGMLPIVVIEKDLSNRMSSTIRHNRARGTHNIELMCHIVAELDKAGMSDQWIMKNIGMDRDELLRLKQISGLADLFANRDFSVPEDDQPGNVDKKPTR : not soluble
MRDAALRYPNILFDLDGTLTDPREGITRSVQFALARLGIDEPDLARLEHFIGPPLLQCFMQTYGFDEARAWEAVNHYRERFRVTGLYENRVFDGIPELLEALVGRGHTLYVATSKPGVFAREIARHFAFDRHFKAIYGSELDGTRTHKEELIRHLLDSEGLAAEHCLMIGDRMHDLLGASRNGVACIGVGYGFGSEDELRAHQPTHYCADLAALRQVLESH : not soluble
MSLDRVEVLGVEFVEFTADQTEAEALGSLLGAMGFRAVASHREKAVTLWRQGCDHRGINVVINTEQKGFAHSSYLVHGASAYAIGLKVPDASAAVERARALGAEIFLPESGEGEGAMAAIRGMGGGLIYFVDEIDDVWSREFVAPGDDRQPAATLVAIDHVAQSMKEEQLPSWLLFYTSILDADKLAQVDIVDPAGLVRSQVVENASGTLRLTLNGADNHRTLAGHFIAESFGSGVQHVAFRTDDIFEAAEHMRRSGFRALAISRNYYDDIEVRFALEPGFVDRLRDENILYDRDEDGEYFQIYGPTFGEGFFFEIVERRSGYRGYGAANAPFRIAAQKRCLRPAGMPAEGSSRVDLQVCRPKKGIITITTDPNSSSVDKLAAALEHHHHHH : soluble
MKRFLLSLLALTTLVGCNSKDDNTPTPAKPLSEQQQAYLPTKKVKRISCTYIDEGTTSNTNSPNSYLEAELYNQTYTLRTAEYLYEYDNMGRINKVTIKQERKPEDVRTFTYKDYSVIITAPYDTEVNGQYDIQAVEYGLNAAGNTLGFGMYNEKQQLKSVGDEIITWENDNITKIISKDDREGNKILETVLTYYNNENKNKFNVFSFDFSRESRSFMNYFEMPIALIIGASPKNLPKKVVIPSSRYNGEIENKIIELTYTFDNDGFVKNISENEYLRTGTSVGAYYQNSSYGDIDATTMSNTLQDLMTKIDNGTVTGKSYKIINNKQNERVIQFTIPIKVEKDSNGKPLNLIVDKICEYTFRYITENNQKKLSQIEMNITFKPHLVTHYELNY : not soluble

With those in mind, consider the next sequence.
Could you tell me which soluble on expression in E. coli is on file for MSLHVLTLAIARAASIDELALAANKQRELVESLMSRGVRTRFVMELIAAVNEQIIEKAFELVVPPALHDQCCLVVLGSEGRGEQILKTDQDNALIIQDGLEWHQCQPIMETLTHTLLQLGYPLCPGKVMVNNPKWVRSQSDWKRTLTDWVKAARPEQVMDIAIFADAHAVAGNRALLAPVKAHLQHLMAGQELILAEFTRPALNFSVPLTLFGNVKSSKQGIDIKQGGIFPIVHGVRALSLEHAIDANNTFDRIEALVKKRVLEQETGDNLSEAFKLFLKLRLAQQLGNQHSTNQLDFKQLDRTERDLLRHSLHVVKKFKQWLGYHYQIRDEGHHHHHH ?
soluble

----------
assay: soluble on expression in E. coli; label from the status in PepcDB or PDB records
reported endpoint: soluble on expression in E. coli

MSLKIVRILEKDLPITSPGANAVVDFAGLTTSAVAIVTDAFRDGKPLVGYGFGSIGRWSVGGMLRERFIPRILAVEPASLQDETGNIDPFACWNAAMRNEKPGGHGDRATALGALDMALWDLRAKADGVPLYRLLADRYRDGQADEDVAVYAAGGYYQPGSNYRSLQDELKGYIDRGYNEVKIKIGGAPLAEDMRRIEAAIAVLGDGARLAVDANGRFDLETALAYGRAMSDYGLRWYEEPGDPLDFRLMAVLAEHYDGPLATGENLFSSQDARNLLRYGGMRAERDFVQFDCGLAYGLPDYLKVLDIMRRHGWSPRRLHPHGGHQMSLHLAAGLGLGGNESYPGVFQPLGGFADCSKVENGRVRLPDAPGVGLELKSELKTWLDEAFEEGHHHHHH : not soluble
EQKVEAFNIQYKSRTSFKVQVKLNAQGKYQKSQVQSYLQQIGLNDGDLKQESGTLSADLIFTYTVPESNLFSRKNFDTLMKKINFNTTLKIDMVGKDEIMKKILQSTTFTNNLSSQTFQDQSIDLLPYLLYS : not soluble
